Recorded IC50 for the following compounds
# target under test: HSD17B13 (Homo sapiens (Human))
# experiment notes: HSD17B13 enzymatic inhibition assay (150 nM or 50 nM HSD17B13)
# Assay type: biochemical
# condition context: 50 nM HSD17B13; read-out: Inhibition of 50 nM of HSD17B13 IC50

>>> val("CCc1ccc2c(c1)Oc1cccc(CC)c1C2NC(=O)c1ccc(C(F)(F)F)[nH]c1=O (stereo not shown)")
"540 nM"
>>> val("Cc1ccc(C(NC(=O)c2ccc(C(F)(F)F)[nH]c2=O)C2CCOCC2)cc1 (stereo not shown)")
"4570 nM"
>>> val("COc1ccc2c(c1)CCC(OC)C2NC(=O)c1ccc(C(F)(F)F)[nH]c1=O (stereo not shown)")
"1410 nM"

The compound listed as Cc1cc(C(=O)NC2c3ccc(Cl)cc3Oc3cccc(Cl)c32)c(=O)[nH]c1C(F)(F)F (stereo not shown) shows IC50 equal to 870 nM

----------
# target under test: HSD17B13 (Homo sapiens (Human), UniProt Q7Z5P4)
# Sequence (Q7Z5P4 other isoform, or with tags, fused parts or gaps): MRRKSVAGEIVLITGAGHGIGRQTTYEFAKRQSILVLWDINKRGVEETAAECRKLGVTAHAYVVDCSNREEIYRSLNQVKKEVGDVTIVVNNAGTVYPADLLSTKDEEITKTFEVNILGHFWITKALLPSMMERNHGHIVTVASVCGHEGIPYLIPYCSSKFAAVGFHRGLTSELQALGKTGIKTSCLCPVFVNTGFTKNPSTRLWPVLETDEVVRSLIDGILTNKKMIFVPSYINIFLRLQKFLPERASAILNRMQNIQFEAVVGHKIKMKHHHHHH
# experiment notes: HSD17B13 enzymatic inhibition assay (150 nM or 50 nM HSD17B13)
# Format: biochemical
# condition context: 50 nM HSD17B13; read-out: Inhibition of 50 nM of HSD17B13 IC50
Recorded IC50 for the following molecules
State just the number; it will be interpreted in nM.

Answered cases to consult:
>>> val("Cc1ccc(C(NC(=O)c2cnc(C(F)(F)F)[nH]c2=O)c2ccccc2)cc1C (centres unmarked) [Compound 18A]")
2620
>>> val("CCc1ccc(C(NC(=O)c2ccc(C(F)(F)F)[nH]c2=O)c2ccccc2)cc1 (centres unmarked) [Compound 4A]")
550
>>> val("Cc1ccc2c(c1)[C@@H](O)CC[C@H]2NC(=O)c1ccc(C(F)(F)F)[nH]c1=O [Compound 312]")
450

// moving on: another record for IC50
The molecule listed as O=C(NC(c1ccccc1)c1ccc(N2CCN(CC(F)(F)F)CC2)cc1)c1ccc(C(F)(F)F)[nH]c1=O (centres unmarked) [Compound 96] shows IC50 equal to 1740

----------
# target under test: HSD17B13 (Homo sapiens (Human), UniProt Q7Z5P4)
# experiment notes: HSD17B13 enzymatic inhibition assay (150 nM or 50 nM HSD17B13)
# Format: biochemical
# condition context: 50 nM HSD17B13; read-out: Inhibition of 50 nM of HSD17B13 IC50
Recorded pIC50 for the following molecules
Friendly reminder that pIC50 comes from taking -log10 of the concentration in mol/L.

Answered cases to consult:
>>> val("O=C(NC(c1ccccc1)c1ccc(C2CCOCC2)cc1)c1ccc(C(F)(F)F)[nH]c1=O (stereo not shown)")
5.77
>>> val("Cc1ccc2c(c1)Oc1cc(C)ccc1C2NC(=O)c1c(C)cc(C(F)(F)F)[nH]c1=O")
6.46
>>> val("COc1ccc2c(c1)CC(C)CC2NC(=O)c1ccc(C(F)(F)F)[nH]c1=O (stereo not shown)")
6.24
>>> val("Cc1ccc2c(c1)Oc1cc(C)ccc1C2NC(=O)c1cc(Br)c(C(F)(F)F)[nH]c1=O")
7.15
>>> val("Cc1ccc2c(c1)Oc1cccc(C)c1C2NC(=O)c1cnc(C(F)(F)F)[nH]c1=O (stereo not shown)")
5.99
>>> val("O=C(NC1c2ccccc2Oc2ccccc21)c1ccc(C(F)F)[nH]c1=O")
5.70
>>> val("Cc1ccc2c(c1)CCC2NC(=O)c1ccc(C(F)(F)F)[nH]c1=O (stereo not shown) [Compound 133]")
5.84
>>> val("Cc1ccc(C(CC2CCOCC2)NC(=O)c2ccc(C(F)(F)F)[nH]c2=O)cc1 (stereo not shown)")
5.57
>>> val("CCC1Cc2cc(C)ccc2C1NC(=O)c1ccc(C(F)(F)F)[nH]c1=O (stereo not shown)")
7.22
>>> val("COc1c(C)ccc2c1CCCC2NC(=O)c1ccc(C(F)(F)F)[nH]c1=O (stereo not shown)")
5.57

The molecule listed as CCCC1=C(NC(=O)c2ccc(C(F)(F)F)[nH]c2=O)c2ccc(C)cc2C1O (stereo not shown) shows pIC50 equal to 7.00

The molecule listed as CCCC1Cc2cc(OC)ccc2C(NC(=O)c2ccc(C(F)(F)F)[nH]c2=O)C1 (stereo not shown) shows pIC50 equal to 7.10

The molecule listed as Cc1ccc2c(c1)Oc1cccc(C)c1C2NC(=O)c1cc(N2CCCCC2)c(C(F)(F)F)[nH]c1=O (stereo not shown) shows pIC50 equal to 5.89
